# credit: patent EP0506011A1

For aldose reductase (Rattus norvegicus, UniProt P07943), measured pIC50 is reported for the entries below.
In plain terms, pIC50 is the concentration in mol/L turned into minus its base-10 logarithm.

Below, each entry is followed by its recorded pIC50 result.
{"smiles": "CC(C)c1ccc2cc(-c3nnnn3CC(=O)O)sc2c1", "experimental_system": "aldose reductase (Rattus norvegicus, UniProt P07943)", "assay_value": 7.74}
{"smiles": "O=C(O)Cn1nnnc1-c1cc2ccccc2s1", "experimental_system": "aldose reductase (Rattus norvegicus, UniProt P07943)", "assay_value": 7.62}
{"smiles": "COc1ccc2cc(-c3nnnn3CC(=O)O)sc2c1", "experimental_system": "aldose reductase (Rattus norvegicus, UniProt P07943)", "assay_value": 7.68}
{"smiles": "Cc1c(-c2nnnn2CC(=O)O)sc2ccccc12", "experimental_system": "aldose reductase (Rattus norvegicus, UniProt P07943)", "assay_value": 7.49}
{"smiles": "O=C(O)Cn1nnnc1-c1cccc2sccc12", "experimental_system": "aldose reductase (Rattus norvegicus, UniProt P07943)", "assay_value": 7.59}
{"smiles": "Cc1c(-c2nnnn2CC(=O)O)oc2ccccc12", "experimental_system": "aldose reductase (Rattus norvegicus, UniProt P07943)", "assay_value": 7.17}
{"smiles": "CCCCOc1ccc2cc(-c3nnnn3CC(=O)O)sc2c1", "experimental_system": "aldose reductase (Rattus norvegicus, UniProt P07943)", "assay_value": 7.62}
{"smiles": "COc1cc2cc(-c3nnnn3CC(=O)O)sc2c(OC)c1OC", "experimental_system": "aldose reductase (Rattus norvegicus, UniProt P07943)", "assay_value": 7.16}

Ask: Please state recorded pIC50 (tested on aldose reductase (Rattus norvegicus, UniProt P07943)) of O=C(O)Cn1nnnc1-c1sc2ccccc2c1Cl
Result: 7.46
